Read-out: Fatty Acid-Binding Protein 1 (FABP1), FABP1 (gene 2168)
Test: LTEA_HepaRG_FABP1: Life Technologies and Expression Analysis (LTEA) Assay for Fatty Acid-Binding Protein 1 (FABP1) using HepaRG (AID 2283494)
Details: mRNA level, 48 h; actives raise or lower the signal
Calls of active or inactive are those of the source. The calls were made as follows: active = hit-call score of the fitted dose curve at least 0.9, where 1 is the maximum; inactive = score below 0.9.
Returns: one label drawn from active, inactive

compound	assigned.category
CC1=CC(=O)CC(C)(C)C1	inactive
CCCCC(CC)COC(=O)CCCCCCCCC(=O)OCC(CC)CCCC (configuration not stated)	inactive
CCCCCCc1ccc(O)cc1O	inactive
CC(=O)OC[C@H]1O[C@@](COC(C)=O)(O[C@H]2O[C@H](COC(C)=O)[C@@H](OC(C)=O)[C@H](OC(C)=O)[C@H]2OC(C)=O)[C@@H](OC(C)=O)[C@@H]1OC(C)=O	inactive
CCOc1cccc(-n2cc(C(=O)N3CCN(c4cc(C(=O)O)c5ccccc5c4)CC3)nc2-c2ccc(C)cc2)c1	active
CC[C@H]1OC(=O)[C@H](C)[C@@H](O[C@H]2C[C@@](C)(OC)[C@@H](O)[C@H](C)O2)[C@H](C)[C@@H](O[C@@H]2O[C@H](C)C[C@H](N(C)C)[C@H]2O)[C@](C)(O)C[C@@H](C)C(=O)[C@H](C)[C@@H](O)[C@]1(C)O	inactive

Field: outcome | Entry: CC(=O)OCCC(C)C
inactive

// next record Cc1c(-c2cccnc2)c2ccccc2n1CCCCC(=O)O
inactive

// next record CCOC(=O)COc1ccc2c(c1)CC(NCC(O)c1cccc(Cl)c1)CC2 (configuration not stated)
active

----------
Read-out: Interleukin-1 alpha (IL1a), IL1A (gene 3552)
Test: BSK_BE3C_IL1a: BioMAP Diversity Plus: BE3C Assay for Interleukin-1 alpha (IL1a) Biomarker Activity (AID 2283016)
Conditions: primary human bronchial epithelial cells; actives raise or lower the signal
Activity calls are given as the source filed them. The calls were made as follows: active = hit-call score of the fitted dose curve at least 0.9, where 1 is the maximum; inactive = score below 0.9.
Returns: one label drawn from Yes for active, No for inactive

compound	assigned.category
Cc1ccc(C)c(O)c1	No

Field: outcome | Entry: CNS(=O)(=O)c1cc(C(=O)N2CCC(CCN3C4CCC3CC(n3c(C)nc5ccccc53)C4)(c3cccc(F)c3)CC2)c(Cl)cc1F (centres undefined)
No

// next record CC(C)CCCCCCOC(=O)c1ccc(C(=O)OCCCCCCC(C)C)c(C(=O)OCCCCCCC(C)C)c1
No

// next record COCCOc1cc2cc(C(=O)NC3CCN(C(C)C)CC3)n(CC(=O)Nc3ccc(Cl)cn3)c2cn1
No

// next record O=C(O)c1cccc(N(Cc2cccnc2)c2ccc(OC(F)F)c(OC(F)F)c2)c1
No

// next record CCCCC(CC)COC(=O)CCCCCCCCC(=O)OCC(CC)CCCC (centres undefined)
No

// next record C=CC(=C)CCC=C(C)C
No

// next record Cn1c(=O)c2c(ncn2C)n(C)c1=O
No

// next record CCCN(C1CCN(C(=O)C2CCNCC2)CC1)[C@@H]1CCc2ccc(OC)cc2C1
No

// next record CCCCC(CC)COC(=O)c1ccc(C(=O)OCC(CC)CCCC)cc1 (centres undefined)
No

----------
Read-out: solute carrier (SLC22A1), SLC22A1 (gene 6580)
Test: LTEA_HepaRG_SLC22A1: Life Technologies and Expression Analysis (LTEA) Assay for solute carrier (SLC22A1) using HepaRG (AID 2283524)
Conditions: mRNA level, 48 h; actives raise or lower the signal
Calls of active or inactive are those of the source. Rule for the calls: active = hit-call score of the fitted dose curve at least 0.9, where 1 is the maximum; inactive = score below 0.9.
metric: outcome

compound	metric	data.value
CC1(C)C(=O)N(Br)C(=O)N1Br	outcome	inactive
COc1ccc(-n2nc(C(F)F)cc2-c2ccc(S(C)=O)cc2)cc1 (stereo unspecified)	outcome	inactive
CCCCCCCCCCCCc1ccccc1	outcome	inactive
O=C(O)c1cccc(N(Cc2cccnc2)c2ccc(OC(F)F)c(OC(F)F)c2)c1	outcome	inactive
CC(C)CCCCCCOC(=O)c1ccc(C(=O)OCCCCCCC(C)C)c(C(=O)OCCCCCCC(C)C)c1	outcome	inactive

Now for another entry.
Please give the measured outcome for this compound: COC(=O)CC(=O)OC
inactive

Source of measurements: PubChem BioAssay (EPA / NIEHS)
